Values from the SangsterLogP compilation

- assayProcedure: method code SF-HPLC, from DOI: 10.1002/qsar.19900090302
- cond: pH 7.0
Where a SMILES comes first, the peptide text is derived from it.
experimentalEndpoint: logD

>>> df
                                   compound  experimentalendpoint  valuereported
0  CC(=O)NCC(=O)N[C@@H](C)C(=O)N[C@H](C(N)=O)C(C)C (Ac-Gly-Ala-Val-NH2)                  logD          -1.56
1  CC[C@H](C)[C@H](NC(C)=O)C(=O)N[C@H](C(N)=O)C(C)C (Ac-Ile-Val-NH2)                  logD           0.16
2  CC[C@H](C)[C@H](NC(=O)[C@H](CC(C)C)NC(C)=O)C(N)=O (Ac-Leu-Ile-NH2)                  logD           0.68
3  CC(=O)N[C@@H](CO)C(=O)N[C@H](C(N)=O)C(C)C (Ac-Ser-Val-NH2)                  logD          -1.53
4  CC(=O)N[C@H](C(=O)N[C@H](C(N)=O)C(C)C)[C@@H](C)O (Ac-Thr-Val-NH2)                  logD          -1.25
5  CC(=O)N[C@H](C(=O)N[C@@H](C)C(=O)N[C@H](C(N)=O)C(C)C)C(C)C (Ac-Val-Ala-Val-NH2)                  logD          -0.67
6  CC(=O)NCC(=O)N[C@@H](CC(C)C)C(=O)NCC(N)=O (Ac-Gly-Leu-Gly-NH2)                  logD          -1.23
7  CC(=O)N[C@@H](C)C(=O)N[C@@H](CC(C)C)C(N)=O (Ac-Ala-Leu-NH2)                  logD          -0.54
